# EXPERIMENTAL TARGET: 5-lipoxygenase (Rattus norvegicus, UniProt P12527)
# Construct: endogenous in cells
# Sequence (P12527 whole entry): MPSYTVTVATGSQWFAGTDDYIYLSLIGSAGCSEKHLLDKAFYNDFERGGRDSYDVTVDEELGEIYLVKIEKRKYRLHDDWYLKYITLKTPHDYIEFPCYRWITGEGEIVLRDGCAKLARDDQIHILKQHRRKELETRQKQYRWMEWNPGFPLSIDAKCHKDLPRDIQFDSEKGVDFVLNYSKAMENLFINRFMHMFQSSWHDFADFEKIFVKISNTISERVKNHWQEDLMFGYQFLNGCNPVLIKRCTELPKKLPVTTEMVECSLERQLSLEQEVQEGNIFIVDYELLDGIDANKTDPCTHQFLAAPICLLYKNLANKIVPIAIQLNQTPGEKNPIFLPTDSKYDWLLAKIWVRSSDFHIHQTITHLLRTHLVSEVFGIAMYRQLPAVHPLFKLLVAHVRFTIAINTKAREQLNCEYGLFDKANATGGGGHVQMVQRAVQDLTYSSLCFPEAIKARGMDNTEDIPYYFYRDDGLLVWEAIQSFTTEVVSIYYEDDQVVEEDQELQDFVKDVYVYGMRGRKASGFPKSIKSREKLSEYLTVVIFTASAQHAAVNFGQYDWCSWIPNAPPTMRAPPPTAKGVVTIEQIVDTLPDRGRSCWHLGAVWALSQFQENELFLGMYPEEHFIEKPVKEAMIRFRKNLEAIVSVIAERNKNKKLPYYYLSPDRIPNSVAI
# TEST DETAILS: Inhibition of 5-lipoxygenase in rat basophilic leukemia cells ([14C]-arachidonic acid, TLC)
# MEASUREMENT CONDITIONS: rat basophilic leukemia cells; standardized to nordihydroguaiaretic acid
pIC50: −log10 of the molar value.
ATTRIBUTE MEASURED: pIC50

# count of solved cases: 10
MOLECULE: COc1ccc(C#Cc2cccc(CN(O)C(N)=O)c2)cc1 [Example 10n]
pIC50: 6.74
//
MOLECULE: CC(c1cccc(C#Cc2ccc(C(F)(F)F)cc2)c1)N(O)C(N)=O (centres unmarked) [Example 11]
pIC50: 6.17
//
MOLECULE: COc1cccc(C#Cc2cccc(C(C)N(O)C(C)=O)c2)c1 (centres unmarked) [Example 5c]
pIC50: 6.24
//
MOLECULE: NC(=O)N(O)Cc1cccc(C#Cc2ccc(Cl)cc2)c1 [Example 10m]
pIC50: 6.59
//
MOLECULE: COc1ccc(C#Cc2cccc(C(C)N(O)C(N)=O)c2)cc1 (centres unmarked) [Example 9]
pIC50: 6.82
//
MOLECULE: COc1ccccc1C#Cc1cccc(C(C)N(O)C(N)=O)c1 (centres unmarked) [Example 10g]
pIC50: 6.49
//
MOLECULE: CC(c1cccc(C#Cc2ccc(Cl)cc2)c1)N(O)C(N)=O (centres unmarked) [Example 10d]
pIC50: 6.26
//
MOLECULE: CC(c1ccc(C#Cc2cccs2)cc1)N(O)C(N)=O (centres unmarked) [Example 15]
pIC50: 6.39
//
MOLECULE: NC(=O)N(O)Cc1cccc(C#Cc2cccc3ccccc23)c1 [Example 7]
pIC50: 6.19
//
MOLECULE: NC(=O)N(O)Cc1ccc(C#Cc2ccsc2)cc1 [Example 16f]
pIC50: 6.39

P: COc1ccc(C#Cc2cccc(C(C)N(O)C(C)=O)c2)cc1OC (centres unmarked) [Example 5b]
Q: COc1ccc(C#Cc2cccc(C(C)N(O)C(N)=O)c2)cc1OC (centres unmarked) [Example 10b]
Which of these two has the smaller recorded pIC50: P or Q ? // caller expects the label of the chosen entry
Q

----------
# EXPERIMENTAL TARGET: 5-lipoxygenase (Rattus norvegicus, UniProt P12527)
# Construct: endogenous in cells; host or cells: rat basophilic leukemia cells
# TEST DETAILS: Inhibition of 5-lipoxygenase in rat basophilic leukemia cells ([14C]-arachidonic acid, TLC)
# Assay type: cell-based
# MEASUREMENT CONDITIONS: selectivity, B/A
# Procedure: To 1 ml each of this suspension there was added indomethacin (10 μM) and calcium chlorid (2 mM) and then the mixture was incubated in presence or absence of a test compound for 3 minutes and thereafter with 20 μM of [^14 C]-arachidonic acid and 20 μM of the calcium ionophore A 23 187 for 10 minutes. […] The distribution of the radioactivity to the different metabolites was measured using a TLC Linear Analyzer. […]
ATTRIBUTE MEASURED: Quotient (IC50 cyclooxygenase (B) / 5-lipoxygenase (A))

COMPOUND: NC(=O)N(O)Cc1ccc(C#Cc2cccs2)cc1 [Example 16d]
ASSAY VALUE: 1351

COMPOUND: NC(=O)N(O)Cc1ccc(C#Cc2ccsc2)cc1 [Example 16f]
ASSAY VALUE: 1220

COMPOUND: CC(c1ccc(C#Cc2ccsc2)cc1)N(O)C(N)=O (centres unmarked) [Example 16b]
ASSAY VALUE: 1724

COMPOUND: COc1ccc(C#Cc2cccc(C(C)N(O)C(C)=O)c2)cc1 (centres unmarked)
ASSAY VALUE: 1517

COMPOUND: COc1ccc(C#Cc2cccc(C(C)N(O)C(N)=O)c2)cc1 (centres unmarked)
ASSAY VALUE: 667

COMPOUND: CC(c1cccc(C#Cc2ccc(Cl)cc2)c1)N(O)C(N)=O (centres unmarked) [Example 10d]
ASSAY VALUE: 909

I: CC(c1ccc(C#Cc2cccs2)cc1)N(O)C(N)=O (centres unmarked)
II: COc1ccccc1C#Cc1cccc(C(C)N(O)C(N)=O)c1 (centres unmarked) [Example 10g]
Returns: the argument ( I or II ) having the larger Quotient (IC50 cyclooxygenase (B) / 5-lipoxygenase (A)). Could you answer with the label of the item you picked?
I
